# System: Escherichia coli
# PROTOCOL NOTES: Antibacterial activity against Escherichia coli K-12 at 37 degC after 24 hrs by filter paper disk method
# Type: functional
MEASUREMENT LABEL: diameter of the inhibition zone (DIZ) (mm)
Please reply with the bare figure in mm and do not write the unit itself.

Worked cases, diameter of the inhibition zone (DIZ) given:
Provide the documented diameter of the inhibition zone (DIZ) with Escherichia coli as the system for `CCCCCCCC/C=C\CCCCCCCc1nc2ccccc2[nH]1`
16

// query: `C=CCCCCCCCCc1nc2ccccc2[nH]1`
18

More entries:
Provide the documented diameter of the inhibition zone (DIZ) with Escherichia coli as the system for `CCCCCCCC/C=C/CCCCCCCc1nc2c([nH]1)CCCC2`
17

// query: `CCCCCCCC/C=C/CCCCCCCc1ncc[nH]1`
11

// query: `CCCCC/C=C\CC[C@H](O)CCCCCCCc1nc2c([nH]1)CCCC2`
16

// query: `CCCCCC[C@@H](O)C/C=C\CCCCCCCc1nc2ccccc2[nH]1`
17

// query: `C=CCCCCCCCCc1ncc[nH]1`
15

// query: `C=CCCCCCCCCc1nc2c([nH]1)CCCC2`
17

// query: `CCCCC/C=C\CC[C@H](O)CCCCCCCc1nc2ccccc2[nH]1`
17

// query: `CCCCCC[C@@H](O)C/C=C\CCCCCCCc1nc2cc(Cl)ccc2[nH]1`
18
